FYI, the data here is from ChEMBL document CHEMBL5291721.

Recorded AC50 values for a group of compounds are listed next.
- Target Or System: Muscarinic acetylcholine receptor M2 (Homo sapiens); also: assay procedure not described here
- Sequence (P08172 whole entry): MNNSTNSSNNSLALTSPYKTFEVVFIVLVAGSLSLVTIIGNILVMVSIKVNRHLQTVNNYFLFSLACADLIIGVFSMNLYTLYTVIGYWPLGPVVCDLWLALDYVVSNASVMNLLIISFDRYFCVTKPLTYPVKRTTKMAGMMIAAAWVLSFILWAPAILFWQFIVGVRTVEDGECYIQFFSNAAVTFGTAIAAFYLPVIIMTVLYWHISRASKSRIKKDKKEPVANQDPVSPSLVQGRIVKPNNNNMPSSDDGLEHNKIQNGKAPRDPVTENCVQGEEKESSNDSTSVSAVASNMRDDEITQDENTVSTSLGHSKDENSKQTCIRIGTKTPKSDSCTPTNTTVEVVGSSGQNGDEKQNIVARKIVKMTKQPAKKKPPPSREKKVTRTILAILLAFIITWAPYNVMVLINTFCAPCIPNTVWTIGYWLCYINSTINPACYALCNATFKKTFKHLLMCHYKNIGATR

Example results:
Compound: Cc1oc(=O)oc1COC(=O)[C@@H]1N2C(=O)[C@@H](NC(=O)[C@H](N)c3ccccc3)[C@H]2SC1(C)C [LENAMPICILLIN]
AC50: > 30 µM

Compound: CC(C)C[C@H](NC(=O)[C@@H](O)[C@H](N)Cc1ccccc1)C(=O)O [UBENIMEX]
AC50: > 30 µM

Compound: Cc1ccc(C)c(OCCCC(C)(C)C(=O)O)c1 [GEMFIBROZIL]
AC50: > 30 µM

Compound: CC(C)[C@@H]1CC[C@@H](C)C[C@H]1O [LEVOMENTHOL]
AC50: > 30 µM

Compound: O=C(O)P(=O)(O)O [FOSCARNET]
AC50: > 30 µM

Compound: Nc1cccc2c1C(=O)N(C1CCC(=O)NC1=O)C2=O (centres undefined) [POMALIDOMIDE]
AC50: > 30 µM

Compound: CCN(CC)CCCC(C)Nc1c2ccc(Cl)cc2nc2ccc(OC)cc12 (centres undefined) [QUINACRINE]
AC50: 0.768 µM

Compound: NC(=O)[C@@H]1CC[C@@H]2CN1C(=O)N2OS(=O)(=O)O [AVIBACTAM]
AC50: > 30 µM

Compound: CC(C)NC(=N)NC(=N)Nc1ccc(Cl)c(Cl)c1 [CHLORPROGUANIL]
AC50: 29.7 µM

Compound: CCCCc1oc2ccc(NS(C)(=O)=O)cc2c1C(=O)c1ccc(OCCCN(CCCC)CCCC)cc1 [DRONEDARONE]
AC50: 2.39 µM

Exercise: Find the measured AC50: item O=C(O)c1ccccc1 [BENZOIC ACID] , target or system Muscarinic acetylcholine receptor M2 (Homo sapiens). Also: assay procedure not described here.
Solution: > 30 µM

Exercise: Find the measured AC50: item Cc1cc2c(cc1S(N)(=O)=O)S(=O)(=O)CCC2 , target or system Muscarinic acetylcholine receptor M2 (Homo sapiens). Also: assay procedure not described here.
Solution: > 30 µM

Exercise: Find the measured AC50: item CC(O)(P(=O)(O)O)P(=O)(O)O [ETIDRONIC ACID] , target or system Muscarinic acetylcholine receptor M2 (Homo sapiens). Also: assay procedure not described here.
Solution: > 30 µM

Exercise: Find the measured AC50: item CCNC(=O)/C=C(C)/C=C/C=C(C)/C=C/c1c(C)cc(OC)c(C)c1C [MOTRETINIDE] , target or system Muscarinic acetylcholine receptor M2 (Homo sapiens). Also: assay procedure not described here.
Solution: > 30 µM
